Data origin, for the record: PubChem BioAssay AID1159580

# Test Details: chemical genetic growth profiling, strain panel (AID 1159580);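 note: tested at 20 µM; growth read once vehicle control cultures reached saturation at 30 °C; lower values mean less growth of the strain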
# Measurement Setup: S. cerevisiae deletion strains, growth OD, locus YDL192W, strain arf1
About 2,000 (36%) of roughly 5,500 compounds were called active. Another 18% or so got no clear call; they are omitted. Cut-off read from the data, not from the text of the source: active = normalized growth mostly below about 0.91 (no sharp cut-off); inconclusive = no clear call, values can overlap the other calls; inactive = mostly above about 0.92. The list shows a part of the results. Where a SMILES comes first, the peptide text is derived from it. Bridges are numbered along the chain shown (N, C = ends). [ ]: non-standard residue; d: D form. The star is where a group is joined. Octanoyl(6-Me) = CCC(C)CCCCC(=O)*; Orn = NCCC[CH](N)C(=O)O; Dab = NCC[CH](N)C(=O)O
Outcomes: y for active, n for inactive

- Compound: "CN(C)CCc1c[nH]c2ccc(CS(=O)(=O)N3CCCC3)cc12"
  Classification: "n"
- Compound: "Cc1ccc(N(CC2=NCCN2)c2cccc(O)c2)cc1"
  Classification: "n"
- Compound: "COP(=O)(OC)OC(Br)C(Cl)(Cl)Br (stereo unspecified)"
  Classification: "n"
- Compound: "CCC(C)CCCCC(=O)NC(CCN)C(=O)NC(C(=O)NC(CCN)C(=O)NC1CCNC(=O)C(C(C)O)NC(=O)C(CCN)NC(=O)C(CCN)NC(=O)C(CC(C)C)NC(=O)C(Cc2ccccc2)NC(=O)C(CCN)NC1=O)C(C)O (stereo unspecified) ({Octanoyl(6-Me)}-[Dab]T[Dab][Dab][Dab]FL[Dab][Dab]T; lactam 4-C; configuration not given here)"
  Classification: "n"
- Compound: "CCOC([O-])=Nc1c[n+](N2CCOCC2)no1"
  Classification: "n"
- Compound: "CCCc1nc2c(C)cc(-c3nc4ccccc4n3C)cc2n1Cc1ccc(-c2ccccc2C(=O)O)cc1"
  Classification: "n"
- Compound: "NCCc1c[nH]c2ccccc12"
  Classification: "n"
- Compound: "CC(=O)c1cc2c(cc1O)OC(C)(C)C=C2"
  Classification: "n"
- Compound: "CC(C)CC1NC(=O)C(CCCN)NC(=O)C(C(C)C)NC(=O)C2CCCN2C(=O)C(Cc2ccccc2)NC(=O)C(CC(C)C)NC(=O)C(CCCN)NC(=O)C(C(C)C)NC(=O)C2CCCN2C(=O)C(Cc2ccccc2)NC1=O (stereo unspecified) (cyclo(FPV[Orn]LFPV[Orn]L); configuration not given here)"
  Classification: "y"
- Compound: "CCc1cccc2c3c([nH]c12)C(CC)(CC(=O)O)OCC3 (stereo unspecified)"
  Classification: "n"
- Compound: "CN1C(=O)CCS(=O)(=O)C1c1ccc(Cl)cc1 (stereo unspecified)"
  Classification: "n"
- Compound: "O=C(OC[C@H]1O[C@H](OC(=O)c2cc(O)c(O)c(OC(=O)c3cc(O)c(O)c(O)c3)c2)[C@H](OC(=O)c2cc(O)c(O)c(OC(=O)c3cc(O)c(O)c(O)c3)c2)[C@@H](OC(=O)c2cc(O)c(O)c(OC(=O)c3cc(O)c(O)c(O)c3)c2)[C@@H]1OC(=O)c1cc(O)c(O)c(OC(=O)c2cc(O)c(O)c(O)c2)c1)c1cc(O)c(O)c(OC(=O)c2cc(O)c(O)c(O)c2)c1"
  Classification: "y"
- Compound: "CCCCCCCCCCCCCCCCCCOCC(O)CO (stereo unspecified)"
  Classification: "n"
- Compound: "Cc1cc(C(C)(C)C)cc(C)c1CC1=NCCN1"
  Classification: "n"
- Compound: "COc1cc(/C=C/C=O)cc(OC)c1OC"
  Classification: "n"
- Compound: "O=C(O)c1cc([N+](=O)[O-])ccc1NCCCc1ccccc1"
  Classification: "n"
